Test: qHTS of pediatric cancer cell lines to identify multiple opportunities for drug repurposing: Confirmatory screen for Saos-2 cells (AID 1347127); further: nearly all actives have a fitted effect of over 60% in size
Conditions: Saos-2 osteosarcoma cell viability; series mostly up to 45.9 µM
Records with an inconclusive call do not appear. Calls of active or inactive are those of the source. The call rests on the fitted dose curve; in most records, active means well fitted cell-killing curve with a large enough effect; inconclusive means small, poorly fitted or top-dose-only effect, or effect the other way; inactive means no such curve, though single readings can be large or run the other way.
Permitted responses: t for active, f for inactive

Asked: What did this assay record as the result for "COCc1c(C(C)C)nc(C(C)C)c(/C=C/[C@@H](O)C[C@@H](O)CC(=O)O)c1-c1ccc(F)cc1" ?
Given back: t

Asked: What did this assay record as the result for "C[C@]12CCC(=O)C=C1CC[C@H]1[C@@H]3CC[C@](O)(C(=O)CO)[C@@]3(C)C[C@H](O)[C@@]12F" ?
Given back: f

Asked: What did this assay record as the result for "CC(=O)Oc1ccc(C(c2ccc(OC(C)=O)cc2)c2ccccn2)cc1" ?
Given back: f

Asked: What did this assay record as the result for "CCCCCCC[N+](CC)(CC)CCCCc1ccc(Cl)cc1" ?
Given back: t

Asked: What did this assay record as the result for CCCCC(CC)CN=C(N)NC(N)=NCCCCCCN=C(N)NC(N)=NCC(CC)CCCC (stereo not drawn) ?
Given back: t

Asked: What did this assay record as the result for "C[C@]12C=CC(=O)C=C1CC[C@@H]1[C@@H]2[C@@H](O)C[C@@]2(C)[C@H]1CC[C@]2(O)C(=O)CO" ?
Given back: f

Asked: What did this assay record as the result for "CC(=O)OCC(=O)[C@@]12N=C(C)O[C@@H]1C[C@H]1[C@@H]3CCC4=CC(=O)C=C[C@]4(C)[C@H]3[C@@H](O)C[C@@]12C" ?
Given back: t

Asked: What did this assay record as the result for "COc1cc(C=C2CCC/C(=C\c3ccc(O)c(OC)c3)C2=O)ccc1O" ?
Given back: t

Asked: What did this assay record as the result for "CC1(C)O[C@@H]2C[C@H]3[C@@H]4CCC5=CC(=O)CC[C@]5(C)[C@@]4(F)[C@@H](O)C[C@]3(C)[C@]2(C(=O)CCl)O1" ?
Given back: f

Asked: What did this assay record as the result for "Oc1ccc(O)cc1" ?
Given back: f

Asked: What did this assay record as the result for "NC(CO)(CO)CO" ?
Given back: f

Asked: What did this assay record as the result for "C=C1C[C@H]2[C@@H]3C=C(C)C4=CC(=O)CC[C@]4(C)[C@H]3CC[C@]2(C)[C@@]1(OC(C)=O)C(C)=O" ?
Given back: f

Asked: What did this assay record as the result for "CN(C)/N=N/c1nc[nH]c1C(N)=O" ?
Given back: f

###

Kindly state max response for each of the entries shown.
Assay: qHTS Assay for Lipid Storage Modulators (AID 1519)
Details: Drosophila S3 cells, BODIPY lipid droplet/cell ratio, laser cytometry; measured here: lipid channel max response; cells loaded with oleic acid
Records with an inconclusive call do not appear.
Kindly provide the numeric value in % only, without the unit symbol.

Asked: Recorded max response of "COC1=CC(=O)C[C@@H](C)[C@]12Oc1c(Cl)c(OC)cc(OC)c1C2=O" , please.
Given back: 22.2

Asked: Recorded max response of "CC[N+](CC)(CCNC(=O)C(=O)NCC[N+](CC)(CC)Cc1ccccc1Cl)Cc1ccccc1Cl" , please.
Given back: -12.6

Asked: Recorded max response of CCN(CCCCOC(=O)c1ccc(OC)c(OC)c1)C(C)Cc1ccc(OC)cc1 (stereo not given) , please.
Given back: 26.2

Asked: Recorded max response of "Cc1cccc(C)c1NC(=O)CN1CCN(CCCC(c2ccc(F)cc2)c2ccc(F)cc2)CC1" , please.
Given back: -28.7

Asked: Recorded max response of "CC/C(=C(/CC)c1ccc(O)cc1)c1ccc(O)cc1" , please.
Given back: 18.5

Asked: Recorded max response of "CN(C)/N=N/c1nc[nH]c1C(N)=O" , please.
Given back: 19.3

Asked: Recorded max response of "C/C=C(/C(=C/C)c1ccc(O)cc1)c1ccc(O)cc1" , please.
Given back: 27.9

Asked: Recorded max response of "CCCn1c(=O)[nH]c(=O)c2[nH]cnc21" , please.
Given back: 25.8

Asked: Recorded max response of "OCc1ccccc1O" , please.
Given back: 0.187

Asked: Recorded max response of "COc1cc(OC)cc(OC)c1" , please.
Given back: 3

Asked: Recorded max response of "O=C(O)c1cc2cc(Cc3cccnc3)ccc2o1" , please.
Given back: 18.2

Asked: Recorded max response of "CN(C)CCCOc1nn(Cc2ccccc2)c2ccccc12" , please.
Given back: -2.83

Asked: Recorded max response of "CN1CCN(CCCN2c3ccccc3Sc3ccc(S(=O)(=O)N(C)C)cc32)CC1" , please.
Given back: -5.35

Asked: Recorded max response of "CC(=O)Oc1ccc(C(c2ccc(OC(C)=O)cc2)c2ccccn2)cc1" , please.
Given back: -14.3

Asked: Recorded max response of "CCCCCCCCCCCCCCCCOP(=O)([O-])OCC[N+](C)(C)C" , please.
Given back: 23.7

Asked: Recorded max response of "CC(=O)Nc1c(I)cc(I)c(C(=O)O)c1I" , please.
Given back: 12.7

Asked: Recorded max response of "CC(=O)c1ccc2c(c1)N(CCCN1CCC(CCO)CC1)c1ccccc1S2" , please.
Given back: -2.93

Asked: Recorded max response of Cc1ccc(C(=O)C(C)CN2CCCCC2)cc1 (stereo not given) , please.
Given back: 11.2

Asked: Recorded max response of "CCCCOc1ccc(OCCCN2CCOCC2)cc1" , please.
Given back: -13.4

Asked: Recorded max response of "C/C=C/c1ccc(OC)cc1" , please.
Given back: 22.7

Asked: Recorded max response of "COc1c(C)c2c(c(O)c1C/C=C(\C)CCC(=O)O)C(=O)OC2" , please.
Given back: 5.14

Asked: Recorded max response of "COc1c2occc2c(OC)c2c(=O)cc(C)oc12" , please.
Given back: 5.65

Asked: Recorded max response of COc1ccc(OC)c(C(O)CNC(=O)CN)c1 (stereo not given) , please.
Given back: 23.2

Asked: Recorded max response of CC(Cc1cccc(C(F)(F)F)c1)NCCOC(=O)c1ccccc1 (stereo not given) , please.
Given back: -2.7

Asked: Recorded max response of "CCn1cc(C(=O)O)c(=O)c2cnc(N3CCCC3)nc21" , please.
Given back: -16.2

###

Assay: qHTS of pediatric cancer cell lines to identify multiple opportunities for drug repurposing: Primary screen for DAOY cells (AID 1347090);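 further: plate controls were DMSO for no effect and bortezomib for full effect; nearly all actives have a fitted effect of over 55% in size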
Settings: DAOY medulloblastoma viability, CellTiter-Glo luminescence, 48 h; series mostly up to 46 µM
Results filed as inconclusive are left out. Active and inactive are the calls of the source. Calls come from the whole dose curve; as a rule, active = well fitted cell-killing curve with a large enough effect; inconclusive = small, poorly fitted or top-dose-only effect; inactive = flat fitted curve, though single readings scatter.
Value Type: outcome

Recorded results for 4 compounds are shown here.
Query Smiles: C=C1C[C@H]2[C@@H]3C=C(C)C4=CC(=O)CC[C@]4(C)[C@H]3CC[C@]2(C)[C@@]1(OC(C)=O)C(C)=O
outcome: inactive
--
Query Smiles: COc1cc(C(=S)N2CCOCC2)cc(OC)c1OC
outcome: inactive
--
Query Smiles: CNC(=O)CN(CCN(CCN(CC(=O)[O-])CC(=O)NC)CC(=O)[O-])CC(=O)[O-].O.[Gd+3]
outcome: inactive
--
Query Smiles: C[C@@H]1CN(CCCn2c3ccccc3c3ccccc32)C[C@H](C)N1
outcome: inactive

Next:
Asked: Recorded outcome of "O=C(COc1ccc(Cl)cc1)N1CCN(Cc2ccc3c(c2)OCO3)CC1" , please.
Given back: inactive

###

Assay: qHTS of pediatric cancer cell lines to identify multiple opportunities for drug repurposing: Primary screen for MG 63 (6-TG R) cells (AID 1347105); further: nearly all actives have a fitted effect of over 50% in size
Conditions: MG 63 (6-TG R) viability, CellTiter-Glo, 48 h; series mostly up to 46 µM
Records with an inconclusive call do not appear. Activity calls are given as the source filed them. Calls follow the shape of the dose curve; as a rule, active = well fitted cell-killing curve with a large enough effect; inconclusive = small, poorly fitted or top-dose-only effect; inactive = no such curve, though single readings can be large or run the other way.
Permitted responses: t for active, f for inactive

Asked: What did this assay record as the result for "CCCCCCc1ccc(O)cc1O" ?
Given back: f

Asked: What did this assay record as the result for "CN(C(=O)CN(CCO)CC(=O)N(C)C(C)(C)Cc1ccccc1)C(C)(C)Cc1ccccc1" ?
Given back: f

Asked: What did this assay record as the result for "OC[C@H]1O[C@H](O[C@]2(CCl)O[C@H](CCl)[C@@H](O)[C@@H]2O)[C@H](O)[C@@H](O)[C@H]1Cl" ?
Given back: f

Asked: What did this assay record as the result for "COc1cccc2c1C(=O)c1c(O)c3c(c(O)c1C2=O)C[C@@](O)(C(=O)CO)C[C@@H]3O[C@H]1C[C@H](N)[C@H](O)[C@H](C)O1" ?
Given back: t

Asked: What did this assay record as the result for "Cc1cc(N)c2cc(NC(=O)Nc3ccc4nc(C)cc(N)c4c3)ccc2n1" ?
Given back: f

Asked: What did this assay record as the result for "CCCN1CCCC[C@H]1C(=O)Nc1c(C)cccc1C" ?
Given back: f

Asked: What did this assay record as the result for "Oc1c(I)cc(Cl)c2cccnc12" ?
Given back: t

Asked: What did this assay record as the result for "NC[C@H]1O[C@H](O[C@H]2[C@H](O)[C@@H](O[C@H]3O[C@H](CO)[C@@H](O)[C@H](N)[C@H]3O)[C@H](N)C[C@@H]2N)[C@H](N)[C@@H](O)[C@@H]1O" ?
Given back: f

Asked: What did this assay record as the result for "Cc1ccc(Nc2c(F)cccc2Cl)c(CC(=O)O)c1" ?
Given back: f
